Parameter: inhibition. Scope: all listed entries.
# Species: Rattus norvegicus
# method.description: Inhibition of rat recombinant Rab geranylgeranyltransferase at 100 uM in presence of canine Rab7 and rat REP1 NBD-FPP based continuous fluorimetric assay
Peptide text beside a SMILES is read from it. * marks the point of attachment. Undecanoyl = CCCCCCCCCCC(=O)*
Could you give me the number in %? Just the number is fine.

# compound, reading.unit, inhibition
measured = [
    ("CCCCCCCCCCC(=O)N[C@@H](Cc1c[nH]cn1)C(=O)N[C@@H](Cc1c[nH]cn1)C(=O)N[C@@H](Cc1ccc(O)cc1)C(=O)NCc1ccccn1", "%", 80),
    ("C[C@H](NC(=O)/C=C/c1ccc(F)cc1)C(=O)NCC(=O)N[C@@H](Cc1ccc(O)cc1)C(=O)O", "%", 76),
]

Endpoint output: inhibition of CCCCCCCCCCC(=O)N[C@@H](Cc1c[nH]cn1)C(=O)N[C@@H](Cc1c[nH]cn1)C(=O)N[C@@H](Cc1ccc(O)cc1)C(=O)O (Undecanoyl-His-His-Tyr-OH) . Value?
51

Endpoint output: inhibition of CC(C)C[C@H](NC(=O)[C@H](CO)NC(=O)[C@H](Cc1ccccc1)NC(=O)CCc1ccccc1)C(=O)O . Value?
80

Endpoint output: inhibition of NCCCC[C@H](NC(=O)c1coc(-c2ccccc2)n1)C(=O)NCC(=O)N[C@@H](Cc1ccc(O)cc1)C(=O)O . Value?
100

Endpoint output: inhibition of CC(C)C[C@H](NC(=O)[C@H](COC(C)(C)C)NC(=O)[C@H](Cc1ccccc1)NC(=O)c1ccc(-c2ccccc2)cc1)C(N)=O . Value?
48

Endpoint output: inhibition of CC(C)(C)Oc1ccc(C[C@H](NC(=O)c2coc(-c3ccccc3)n2)C(=O)NCC(=O)N[C@@H](Cc2c[nH]c3ccccc23)C(=O)O)cc1 . Value?
32

----------
# method.description: Inhibition of rat recombinant Rab geranylgeranyltransferase iin presence of canine Rab7 and rat REP1 by NBD-FPP based continuous fluorimetric assay
Parameter: pIC50. Scope: all listed entries.
Hey, just a heads up that pIC50 is the negative log base 10 of the concentration in molar.

Consider the worked cases shown below.
# structure.smiles.string, experimental.value
measured = [
    ("O=C(CNC(=O)c1coc(-c2ccccc2)n1)N[C@@H](Cc1ccccc1)C(=O)N[C@@H](Cc1c[nH]cn1)C(=O)O", 4.35),
    ("CN(C(=O)[C@H](Cc1c[nH]cn1)NC(=O)OCc1ccccc1OCc1ccccc1)[C@H](CN[C@@H](Cc1ccccc1)C(=O)O)Cc1ccc(O)cc1", 4.71),
    ("CCCCCCCCCCCOc1ccc(C(=O)N[C@@H](Cc2c[nH]cn2)C(=O)N[C@@H](Cc2c[nH]cn2)C(=O)N[C@@H](Cc2c[nH]cn2)C(=O)NCCCCN)cc1", 4.62),
    ("CCC/C=C\\c1ccccc1/C=C/C(=O)N[C@H](Cc1c[nH]cn1)C(=O)N(C)[C@H](CN[C@H](Cc1ccccc1)C(=O)O)Cc1ccc(O)cc1", 4.82),
    ("CCCCCc1ccc(CCC(=O)N[C@H](Cc2ccc(O)cc2)C(=O)N[C@@H](Cc2ccc(O)cc2)C(=O)N[C@@H](Cc2ccccc2)C(=O)O)cc1", 4.96),
    ("O=C(CNC(=O)c1coc(-c2ccccc2)n1)N[C@@H](Cc1ccccc1)C(=O)N[C@@H](Cc1cn(C(c2ccccc2)(c2ccccc2)c2ccccc2)cn1)C(=O)O", 4.60),
    ("Cc1nc(C(=O)NCC(=O)N[C@@H](Cc2ccccc2)C(=O)N[C@@H](Cc2cn(C(c3ccccc3)(c3ccccc3)c3ccccc3)cn2)C(=O)O)c(C)o1", 4.34),
]

Endpoint output: pIC50 of CCCCCCCC(=O)N[C@@H](Cc1c[nH]cn1)C(=O)N[C@@H](Cc1ccccc1)C(=O)N[C@@H](Cc1ccc(O)cc1)CN(C)CCc1ccccn1 . Value?
5.55

----------
Parameter: inhibition. Scope: all listed entries.
# Species on record: Rattus norvegicus
# method.description: Inhibition of rat recombinant Rab geranylgeranyltransferase at 100 uM in presence of canine Rab7 and rat REP1 NBD-FPP based continuous fluorimetric assay
Could you give me the number in %? Just the number is fine.

Consider the worked cases shown below.
# structure.smiles.string, experimental.value
data = [
    ("COC(=O)[C@H](CCC(N)=O)NC(=O)[C@H](NC(=O)[C@H]1CCCN1C(=O)c1ccc([N+](=O)[O-])c(NC(C)=O)c1)C(C)C", 98),
    ("CC(=O)Nc1cc(C(=O)N2CCC[C@H]2C(=O)N[C@@H](C(=O)N[C@@H](CCC(=O)O)C(N)=O)C(C)C)ccc1[N+](=O)[O-]", 111),
    ("CC(C)C[C@H](NC(=O)[C@H](COC(C)(C)C)NC(=O)[C@H](Cc1ccccc1)NC(=O)/C=C/c1ccc(F)cc1)C(N)=O", 83),
]

Endpoint output: inhibition of CC(C)C[C@H](NC(=O)[C@H](CO)NC(=O)[C@H](Cc1ccccc1)NC(=O)/C=C/c1ccc(F)cc1)C(=O)NNc1ccccc1 . Value?
95

----------
Parameter: inhibition. Scope: all listed entries.
# Organism: Rattus norvegicus
# method.description: Inhibition of rat recombinant Rab geranylgeranyltransferase at 100 uM in presence of canine Rab7 and rat REP1 NBD-FPP based continuous fluorimetric assay
Peptide text beside a SMILES is read from it. * marks the point of attachment. Hydrocinnamoyl = O=C(CCc1ccccc1)*; NHBn = c1ccc(CN*)cc1
Could you give me the number in %? Just the number is fine.

Consider the worked cases shown below.
# compound, reading.unit, inhibition
measured = [
    ("CCCCCCCCCCCCCCCC(=O)N[C@@H](Cc1ccc(O)cc1)C(=O)N[C@@H](Cc1ccc(O)cc1)C(=O)N[C@@H](Cc1ccc(O)cc1)C(=O)NCc1ccc(F)cc1F", "%", 92),
    ("O=C(CCc1ccccc1)N[C@@H](CO)C(=O)N[C@@H](Cc1ccccc1)C(=O)N[C@@H](CO)C(=O)NCc1ccccc1 (Hydrocinnamoyl-Ser-Phe-Ser-NHBn)", "%", 95),
    ("CC(C)C[C@H](NC(=O)/C=C/c1ccccc1)C(=O)N[C@@H](Cc1ccccc1)C(=O)N[C@@H](Cc1ccccc1)C(=O)O", "%", 75),
    ("O=C(CNC(=O)[C@H](Cc1ccc(O)cc1)NC(=O)c1ccc(F)cc1)N[C@@H](Cc1ccc(O)cc1)C(=O)O", "%", 90),
    ("O=C(/C=C/c1ccc(F)cc1)N[C@@H](CO)C(=O)N[C@@H](Cc1ccccc1)C(=O)N[C@@H](CO)C(=O)Nc1ccc(F)c(Cl)c1", "%", 89),
]

Next:
Endpoint output: inhibition of C[C@@H](O)[C@H](NC(=O)/C=C/c1ccccc1)C(=O)N[C@@H](Cc1ccccc1)C(=O)N[C@@H](CCC(N)=O)C(=O)Nc1nccs1 . Value?
86

----------
# Species on record: Rattus norvegicus
# method.description: Inhibition of rat recombinant Rab geranylgeranyltransferase at 100 uM in presence of canine Rab7 and rat REP1 NBD-FPP based continuous fluorimetric assay
# if value of inhibition reaches 80%, tag fulfilled; if it stays below, tag not fulfilled

Here's what some known entries look like.
# compound, assigned.label
records = [
    ("CCCCCCCCCCCCCCCCNC(=O)[C@H](CC1CCCC1)NC(=O)[C@H](CCC(N)=O)NC(=O)[C@@H](NC(=O)CCC(O)CBr)[C@@H](C)O (some centres not stated)", "not fulfilled"),
    ("CCCCCCCCCCCOc1ccc(C(=O)N[C@@H](Cc2c[nH]cn2)C(=O)N[C@@H](Cc2ccc(O)cc2)C(=O)N[C@@H](Cc2ccccc2)C(=O)NCCCn2ccnc2)cc1", "not fulfilled"),
    ("COC(=O)[C@H](CC(C)C)NC(=O)[C@H](COC(C)(C)C)NC(=O)[C@H](Cc1ccccc1)NC(=O)c1ccc(-c2ccccc2)cc1", "fulfilled"),
    ("CC(C)C[C@H](NC(=O)[C@H](COC(C)(C)C)NC(=O)[C@H](Cc1ccccc1)NC(=O)CCc1ccccc1)C(=O)O", "fulfilled"),
]

Form field: inhibition at least 80%? Entry: C[C@@H](O)[C@H](NC(=O)C(Br)C(Br)c1ccccc1)C(=O)N[C@@H](Cc1ccccc1)C(=O)N[C@@H](CCC(N)=O)C(=O)OCCCl (some centres not stated)
not fulfilled

Form field: inhibition at least 80%? Entry: O=C(CNC(=O)[C@H](Cc1ccc(O)cc1)NC(=O)c1ccc(F)cc1)N[C@@H](Cc1ccc(O)cc1)C(=O)OCCCl
not fulfilled

Form field: inhibition at least 80%? Entry: O=C(CCc1ccc(F)cc1)N[C@@H](Cc1ccc(O)cc1)C(=O)NCC(=O)N[C@@H](Cc1ccc(O)cc1)C(=O)NCc1ccc(F)cc1F
fulfilled

----------
# Organism: Rattus norvegicus
# method.description: Inhibition of rat recombinant Rab geranylgeranyltransferase at 100 uM in presence of canine Rab7 and rat REP1 NBD-FPP based continuous fluorimetric assay
# if value of inhibition reaches 80%, tag condition met; if it stays below, tag condition not met

Here's what some known entries look like.
# compound, assigned.label
data = [
    ("O=C(CCc1ccc(F)cc1)N[C@@H](Cc1ccc(O)cc1)C(=O)NCC(=O)N[C@@H](Cc1ccc(O)cc1)C(=O)Nc1ccc(F)cc1F", "condition met"),
    ("CC[C@H](C)[C@H](NC(=O)/C=C/c1ccc(F)cc1)C(=O)N[C@@H](C)C(=O)N[C@@H](CCC(N)=O)C(=O)OC", "condition met"),
    ("CCCCCCCCCCOc1ccc(C(=O)N[C@@H](Cc2c[nH]cn2)C(=O)N[C@@H](Cc2c[nH]cn2)C(=O)N[C@@H](CO)C(=O)O)cc1", "condition not met"),
    ("CCCCCCCCCCCCCCCCNC(=O)[C@H](Cc1ccc(O)cc1)NC(=O)CNC(=O)[C@H](Cc1ccc(O)cc1)NC(=O)c1ccc(F)cc1", "condition met"),
    ("CON(C)C(=O)[C@H](CC(C)C)NC(=O)[C@H](CO)NC(=O)[C@H](Cc1ccccc1)NC(=O)/C=C/c1ccc(F)cc1", "condition not met"),
    ("O=C(/C=C/c1ccc(F)cc1)N[C@@H](CO)C(=O)N[C@@H](Cc1ccccc1)C(=O)N[C@@H](CO)C(=O)Nc1ccccc1", "condition not met"),
    ("O=C(CNC(=O)c1csc(C2CCNCC2)n1)N[C@@H](Cc1ccccc1)C(=O)N[C@@H](Cc1c[nH]cn1)C(=O)O", "condition met"),
    ("CC#CCOC(=O)[C@H](Cc1ccccc1)NC(=O)[C@H](Cc1ccccc1)NC(=O)[C@H](CC(C)C)NC(=O)/C=C/c1ccccc1", "condition not met"),
]

Here is another compound to look at.
Form field: inhibition at least 80%? Entry: NCCOC(=O)[C@H](Cc1ccc(O)cc1)NC(=O)CNC(=O)[C@H](Cc1c[nH]cn1)NC(=O)OCc1ccccc1
condition met
